Test details: Developmental/acute toxicity test of zebrafish embryos
Assay type: in vivo
Run parameters: AB wild-type, in vivo; zebrafish embryos, 96 h exposure; read-out: median death concentration (IC50)
Excerpt: The AB-wild-type adult zebrafish (three months old) were purchased from the Institute of Aquatic Biology, Chinese Academy of Sciences (Wuhan, China). During breeding, male and female fish were placed in separate spawning boxes at a 1:1 ratio. Then, early in the morning, they were mixed and laid eggs. During the exposure period, 96-well plates containing normal embryos were randomly selected and viewed daily under a light microscope to assess the developmental toxicity. […]
Property measured: LC50 (median lethal concentration) at 96 h

INSERT INTO measurements (compound, value_observed) VALUES
  ('O=C/C=C/c1c(F)c(F)c(F)c(F)c1F [CAD-14, (E)-3-(perfluorophenyl)acrylaldehyde]', '83.7 µM');
